Source listed as patent US9125937B2.

Tested on: B16 F0 murine melanoma
assay.info: Biodistribution study by planar scintigraphic imaging (gamma camera), tumour uptake quantification
Type: in vivo, C57BL6 male mice
run.parameters: 72 H post injection, i.v.
Where a name gives a salt, the structure may show the parent alone.
The molecules listed here are annotated with their Radioactive concentration in tumour (tumoural uptake).
A complete answer gives the number followed by the unit.

molecule | assayed.target | assay.value
CCN(CCNC(=O)c1cnc2cc([125I])ccc2n1)Cc1ccnc(F)c1.Cl.Cl [[^125I]34] | B16 F0 murine melanoma | 10.0 ± 2.6 % ID/g
CCN(CCNC(=O)c1cnc2cc([125I])ccc2n1)CCNc1cccc(F)n1 [[^125I]17, dihydrochloride salt] | B16 F0 murine melanoma | 5.7 ± 1.5 % ID/g
CCN(CC)CCNC(=O)c1cnc2cc([125I])ccc2n1 [[^125I]ICF01012, reference compound] | B16 F0 murine melanoma | 12.3 ± 3.7 % ID/g
CCN(CCNC(=O)c1ccc2cncc([125I])c2n1)CCOc1cccnc1F.Cl.Cl [[^125I]74] | B16 F0 murine melanoma | 3.3 ± 2.0 % ID/g
CCN(C/C=C/CF)CCNC(=O)c1cnc2cc([125I])ccc2n1.Cl.Cl [[^125I]57] | B16 F0 murine melanoma | 10.0 ± 0.9 % ID/g
CCN(CCNC(=O)c1ccnc(F)c1)CCNC(=O)c1cnc2cc([125I])ccc2n1.Cl.Cl [[^125I]40] | B16 F0 murine melanoma | 9.6 ± 7.1 % ID/g
CCN(CCNC(=O)c1cccc2nc3cc([125I])ccc3nc12)CCOc1cccnc1F.Cl.Cl [[^125I]85] | B16 F0 murine melanoma | 5.8 ± 0.2 % ID/g

Consider the record given below.
The molecule listed as CCN(CCNC(=O)c1cnc2cc([125I])ccc2n1)CCOc1cccnc1F [[^125I]11, dihydrochloride salt] has a reported Radioactive concentration in tumour (tumoural uptake) of 10.3 ± 1.7 % ID/g

----------
Tested on: B16 F0 murine melanoma
assay.info: Biodistribution study by planar scintigraphic imaging (gamma camera), tumour uptake quantification
Format: in vivo, C57BL6 male mice
run.parameters: 168 H post injection, i.v.
experimental.endpoint: Radioactive concentration in tumour (tumoural uptake) (% ID/g)
Numeric answer only, unit % ID/g assumed.

So, CCN(CCCc1ccnc(F)c1)CCNC(=O)c1cnc2cc([125I])ccc2n1.Cl.Cl [[^125I]53] ? Its Radioactive concentration in tumour (tumoural uptake) was 2.5

----------
Radioactive concentration in tumour (tumoural uptake) values for the compounds below.
Test system: B16 F0 murine melanoma
assay.info: Biodistribution study by planar scintigraphic imaging (gamma camera), tumour uptake quantification
Type: in vivo, C57BL6 male mice
run.parameters: 24 H post injection, i.v.
Where a name gives a salt, the structure may show the parent alone.
Your answer is read as % ID/g, so omit the unit and give the number.

See these solved cases before continuing.
compound | measurement.unit | assay.value
CCN(CCNC(=O)c1ccc2cncc([125I])c2n1)CCOc1cccnc1F.Cl.Cl [[^125I]74] | % ID/g | 5.2
CCN(CCNC(=O)c1cnc2cc([125I])ccc2n1)Cc1ccnc(F)c1.Cl.Cl [[^125I]34] | % ID/g | 16.0
CCN(CC)CCNC(=O)c1cc(F)c2cc([125I])ccc2n1 [[^125I]106] | % ID/g | 8.4
CCN(CCNC(=O)c1cnc2cc([125I])ccc2n1)CCc1ccnc(F)c1.Cl.Cl [[^125I]47] | % ID/g | 11.2
CCN(CCNC(=O)c1cnc2cc([125I])ccc2n1)CCNc1cccc(F)n1 [[^125I]17, dihydrochloride salt] | % ID/g | 8.6

Radioactive concentration in tumour (tumoural uptake) value, target or system B16 F0 murine melanoma, for CCN(CCNC(=O)c1cccc2nc3cc([125I])ccc3nc12)CCOc1cccnc1F.Cl.Cl [[^125I]85] : 13.8

With B16 F0 murine melanoma as the test system, CCN(CCNC(=O)c1cnc2cc([125I])ccc2n1)CCOc1cccnc1F [[^125I]11, dihydrochloride salt] showed Radioactive concentration in tumour (tumoural uptake) of 18.2

CCN(C/C=C/CF)CCNC(=O)c1cnc2cc([125I])ccc2n1.Cl.Cl [[^125I]57] tested on B16 F0 murine melanoma gave Radioactive concentration in tumour (tumoural uptake): 15.0

Sample CCN(CCCc1ccnc(F)c1)CCNC(=O)c1cnc2cc([125I])ccc2n1.Cl.Cl [[^125I]53] , system: B16 F0 murine melanoma. Its Radioactive concentration in tumour (tumoural uptake) is 16.3

Hey, B16 F0 murine melanoma data for CCN(CCF)CCNC(=O)c1cnc2cc([125I])ccc2n1 [[^125I]26, dihydrochloride salt] : Radioactive concentration in tumour (tumoural uptake) came out at 24.8

Measured Radioactive concentration in tumour (tumoural uptake) (B16 F0 murine melanoma), entry CCN(CCNC(=O)c1ccnc(F)c1)CCNC(=O)c1cnc2cc([125I])ccc2n1.Cl.Cl [[^125I]40] : 12.1

Value sought: Radioactive concentration in tumour (tumoural uptake), system B16 F0 murine melanoma, item CCN(CC)Cc1ccnc(F)c1CNC(=O)c1cnc2cc([125I])ccc2n1.Cl.Cl [[^125I]92] . Result: 6.4

----------
Test system: B16 F0 murine melanoma
assay.info: Biodistribution study by planar scintigraphic imaging (gamma camera), tumour uptake quantification
Assay type: in vivo, C57BL6 male mice
run.parameters: 120 H post injection, i.v.
Below: a set of entries, each annotated with reported Radioactive concentration in tumour (tumoural uptake).

# example entries with known answers
molecule | assay.value
CCN(CC)Cc1ccnc(F)c1CNC(=O)c1cnc2cc([125I])ccc2n1.Cl.Cl [[^125I]92] | 2.4 ± 0.7 % ID/g
CCN(CCCc1ccnc(F)c1)CCNC(=O)c1cnc2cc([125I])ccc2n1.Cl.Cl [[^125I]53] | 5.1 ± 3.3 % ID/g
CCN(CCNC(=O)c1ccnc(F)c1)CCNC(=O)c1cnc2cc([125I])ccc2n1.Cl.Cl [[^125I]40] | 5.1 ± 3.3 % ID/g
CCN(CCNC(=O)c1cccc2nc3cc([125I])ccc3nc12)CCOc1cccnc1F.Cl.Cl [[^125I]85] | 3.7 ± 0.6 % ID/g

Let us examine a further case.
Entry CCN(CC)CCNC(=O)c1cnc2cc([125I])ccc2n1 [[^125I]ICF01012, reference compound] — recorded Radioactive concentration in tumour (tumoural uptake) = 7.3 ± 3.6 % ID/g

----------
Test system: B16 F0 murine melanoma
assay.info: Biodistribution study by planar scintigraphic imaging (gamma camera), tumour uptake quantification
Assay type: in vivo, C57BL6 male mice
run.parameters: 168 H post injection, i.v.
Where a name gives a salt, the structure may show the parent alone.
experimental.endpoint: Radioactive concentration in tumour (tumoural uptake) (% ID/g)
Write the value in % ID/g as a bare number.

molecule | measurement.unit | assay.value
CCN(CC)CCNC(=O)c1cc(F)c2cc([125I])ccc2n1 [[^125I]106] | % ID/g | 2.3
CCN(CC)CCNC(=O)c1cnc2cc([125I])ccc2n1 [[^125I]ICF01012, reference compound] | % ID/g | 3.4
CCN(C/C=C/CF)CCNC(=O)c1cnc2cc([125I])ccc2n1.Cl.Cl [[^125I]57] | % ID/g | 3.3
CCN(CCNC(=O)c1cnc2cc([125I])ccc2n1)CCNc1cccc(F)n1 [[^125I]17, dihydrochloride salt] | % ID/g | 1.5

// Radioactive concentration in tumour (tumoural uptake) lookup, molecule = CCN(CCNC(=O)c1cccc2nc3cc([125I])ccc3nc12)CCOc1cccnc1F.Cl.Cl [[^125I]85] , result: 2.0

The reported value for CCN(CC)Cc1ccnc(F)c1CNC(=O)c1cnc2cc([125I])ccc2n1.Cl.Cl [[^125I]92] in terms of Radioactive concentration in tumour (tumoural uptake) is 1.5

----------
System: B16 F0 murine melanoma
assay.info: Biodistribution study by planar scintigraphic imaging (gamma camera), tumour uptake quantification
Type: in vivo, C57BL6 male mice
run.parameters: 168 H post injection, i.v.
Counter-ions that a name gives are not always drawn.
Parameter Radioactive concentration in tumour (tumoural uptake): see the listing below.
State the answer as a number, implicitly in % ID/g.

compound | assayed.target | measurement.unit | assay.value
CCN(CCNC(=O)c1ccc2cncc([125I])c2n1)CCOc1cccnc1F.Cl.Cl [[^125I]74] | B16 F0 murine melanoma | % ID/g | 1.1

GET /value?item= CCN(CCNC(=O)c1cnc2cc([125I])ccc2n1)CCOc1cccnc1F [[^125I]11, dihydrochloride salt] &field=Radioactive concentration in tumour (tumoural uptake) returns 3.2

Item: CCN(CCNC(=O)c1cnc2cc([125I])ccc2n1)CCc1ccnc(F)c1.Cl.Cl [[^125I]47] | Radioactive concentration in tumour (tumoural uptake): 3.0
